AUC at 24 h values for the molecules below.
assay: AUC at 24 hrs in cynomolgus monkey at 1 mg/kg, po administered as single dose; type: ADME, organism-based, Macaca fascicularis; parameters: time < 24 hr, dose 1 mg/kg, route oral; conditions: plasma
Write the number in ng·h/mL without appending the unit.

• CC(C)(C)[C@H]1C(O)=C(C2=NS(=O)(=O)c3c(CNS(C)(=O)=O)cccc32)C(=O)N1Cc1ccc(F)c(Cl)c1 = 38

For the molecule shown here, CC(C)(C)CCN1C(=O)C(C2=NS(=O)(=O)c3ccccc32)=C(O)[C@@H]1C(C)(C)C , give the reported AUC at 24 h. 4680

Next molecule: CN(Cc1cccc2c1S(=O)(=O)N=C2C1=C(O)[C@H](C(C)(C)C)N(Cc2ccc(F)c(Cl)c2)C1=O)S(C)(=O)=O 193

###

Papp B→A values for the compounds below.
test: Apparent permeability from basolateral to apical side in human Caco-2 cells; format: ADME, cell-based
Write the number in ×10⁻⁶ cm/s without appending the unit.

Below, each entry is followed by its recorded Papp B→A result.
- CC(C)(C)[C@H]1C(O)=C(C2=NS(=O)(=O)c3c(CNS(C)(=O)=O)cccc32)C(=O)N1Cc1ccc(F)c(Cl)c1: 15
- CC(C)(C)CCN1C(=O)C(C2=NS(=O)(=O)c3ccccc32)=C(O)[C@@H]1C(C)(C)C: 19

Now take the following compound into account.
For the compound shown here, CN(Cc1cccc2c1S(=O)(=O)N=C2C1=C(O)[C@H](C(C)(C)C)N(Cc2ccc(F)c(Cl)c2)C1=O)S(C)(=O)=O , give the reported Papp B→A. 29

###

assay: Cytotoxicity against human Huh7/C24 cells after 72 hrs; format: cell-based, Huh-7
value kind: CC50 at 72 h

Below, each entry is followed by its recorded CC50 at 72 h result.
• CC(C)(C)CCN1C(=O)C(C2=NS(=O)(=O)c3ccccc32)=C(O)[C@@H]1C(C)(C)C = > 33 µM
• CC(C)[C@@]1(C)C(O)=C(C2=CS(=O)(=O)c3c(CN(C)S(C)(=O)=O)cccc32)C(=O)N1CCC(C)(C)C = > 33 µM
• CC(C)(C)CCN1C(=O)C(C2=NS(=O)(=O)c3c(CNS(C)(=O)=O)cccc32)=C(O)[C@@H]1C(C)(C)C = > 33 µM
• CC(C)(C)[C@H]1C(O)=C(C2=NS(=O)(=O)c3c(OCc4ncon4)cccc32)C(=O)N1Cc1ccc(F)c(Cl)c1 = > 33 µM
• CCOc1cccc2c1S(=O)(=O)N=C2C1=C(O)[C@H](C(C)(C)C)N(Cc2cccc(Cl)c2)C1=O = > 33 µM

For the compound shown here, CC(C)[C@H]1C(O)=C(C2=NS(=O)(=O)c3c(O)cccc32)C(=O)N1Cc1ccccc1 , give the reported CC50 at 72 h. > 33 µM

Next compound: CC(C)[C@H]1C(O)=C(C2=NS(=O)(=O)c3c(OCC(=O)N4CCOCC4)cccc32)C(=O)N1Cc1ccccc1 > 33 µM

Next compound: CC(C)(C)CCN1C(=O)C(C2=NS(=O)(=O)c3c(OCC(N)=O)cccc32)=C(O)[C@@H]1C(C)(C)C > 33 µM

Next compound: CC(C)(C)[C@H]1C(O)=C(C2=NS(=O)(=O)c3c(OCC#N)cccc32)C(=O)N1Cc1ccc(F)c(Cl)c1 > 33 µM

Next compound: CC(C)[C@H]1C(O)=C(C2=NS(=O)(=O)c3c(OCC#N)cccc32)C(=O)N1Cc1ccccc1 > 33 µM

Next compound: CS(=O)(=O)NCc1cccc2c1S(=O)(=O)N=C2C1=C(O)C2(CC2)N(Cc2ccc(F)c(Cl)c2)C1=O > 33 µM

Next compound: CC(C)(C)[C@H]1C(O)=C(C2=NS(=O)(=O)c3cc(NS(C)(=O)=O)ccc32)C(=O)N1Cc1ccc(F)c(Cl)c1 > 33 µM

Next compound: CCOc1cccc2c1S(=O)(=O)N=C2C1=C(O)[C@H](C(C)(C)C)N(CCC(C)(C)C)C1=O > 33 µM

Next compound: CC(C)[C@H]1C(O)=C(C2=NS(=O)(=O)c3ccccc32)C(=O)N1Cc1ccccc1 > 33 µM

Next compound: CN(Cc1cccc2c1S(=O)(=O)N=C2C1=C(O)C(C)(C)N(Cc2ccc(F)c(Cl)c2)C1=O)S(C)(=O)=O > 33 µM

Next compound: CC(C)[C@H]1C(O)=C(C2=NS(=O)(=O)c3c(OCCC(N)=O)cccc32)C(=O)N1Cc1ccccc1 > 33 µM
